- Experimental details: protein stability index of a GFP-peptide fusion (GPS, HEK-293T) (PSI 1-6); higher = more stable;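 note: 24-mer peptide tiles fused after GFP, lentivirally expressed, FACS-sorted into six equal bins by GFP/DsRed ratio, decoded by Illumina sequencing, PSI is the read-weighted mean bin number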
- Condition label: treatment: DMSO; c terminus: a fixed tail appended
Returns one of class 1 or class 0; class 1 when protein stability index is >= 3.

Hello, I need to know if HFSQIVIFMLCTLVLAIPLLLILV [OR10K2] has measured protein stability index not below 3. Thanks!
class 0

Hello, I need to know if DRERQPLLDRARGAAAQGQTQTVA [PI4K2A] has measured protein stability index not below 3. Thanks!
class 1

Hello, I need to know if SPNFGFMGQLLQYESEILPSTPNP [DUSP5] has measured protein stability index not below 3. Thanks!
class 1

Hello, I need to know if DYSHRQKEQDVEKELRDGGEQDTW [NFE2L1] has measured protein stability index not below 3. Thanks!
class 1

Hello, I need to know if EEEEDDLSELPPLEDMGQPPAEEA [FKBP8] has measured protein stability index not below 3. Thanks!
class 1

Hello, I need to know if NPAPAAPCPLGEPKTQACSGSESP [MYCL] has measured protein stability index not below 3. Thanks!
class 1

Hello, I need to know if RQNVPRKVPNHYIAIPEWFLSENA [CPXM2] has measured protein stability index not below 3. Thanks!
class 0

Hello, I need to know if SSEKLNLQKDLETRPTQHELRLYK [CEP70] has measured protein stability index not below 3. Thanks!
class 1

Hello, I need to know if QDLAFWYGPRWQEVIPYTPAMQRY [HMOX1] has measured protein stability index not below 3. Thanks!
class 0

Hello, I need to know if ERGVEGDFLIRDSESSPSDFSVSL [NCK2] has measured protein stability index not below 3. Thanks!
class 1

Hello, I need to know if VPLARSLQISEELLSRNQLSTAAS [LCOR] has measured protein stability index not below 3. Thanks!
class 1

Hello, I need to know if QNPEAIAAAAMYTFLPDNFSPAKP [MYORG] has measured protein stability index not below 3. Thanks!
class 1

Hello, I need to know if YKPEQPLVRLRGGAYIGEGRVEVL [LOXL2] has measured protein stability index not below 3. Thanks!
class 1

Hello, I need to know if GDVAIKLKFLEENKIKVMHKQLLL [ARFIP2] has measured protein stability index not below 3. Thanks!
class 0

Hello, I need to know if SVGHNNLIPLANTGIVNHTHSRMG [CARM1] has measured protein stability index not below 3. Thanks!
class 1

Hello, I need to know if MQRMIQQFAAEYTSKNSSTQDPSQ [LCOR] has measured protein stability index not below 3. Thanks!
class 1

Hello, I need to know if IGRGTKVILHLKEDQTEYLEERRV [HSP90AB1] has measured protein stability index not below 3. Thanks!
class 1

Hello, I need to know if GALPVGSNLTSNLASLVSQGMIQL [RETREG3] has measured protein stability index not below 3. Thanks!
class 0

Hello, I need to know if RLIEVEDMMVMGRKPDPMCVFTYV [SMTNL2] has measured protein stability index not below 3. Thanks!
class 0

Hello, I need to know if VPTVSRPYSFIEFDTFIQKTKKLY [SEC22B] has measured protein stability index not below 3. Thanks!
class 0

Hello, I need to know if VAAVLEAVAQTAHLPADSEVTLEA [RSAD1] has measured protein stability index not below 3. Thanks!
class 1

Hello, I need to know if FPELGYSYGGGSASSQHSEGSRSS [DVL3] has measured protein stability index not below 3. Thanks!
class 1

Hello, I need to know if DGAISAHKPLLICSCEWMAAMFGG [RHOBTB1] has measured protein stability index not below 3. Thanks!
class 0

Hello, I need to know if DCSGLVLLCLFFGIPWEAGARQIS [PCDHGA10] has measured protein stability index not below 3. Thanks!
class 1

###

Exercise: state measured protein stability index for each of the sequences provided.
- Experimental details: protein stability index of a GFP-peptide fusion (GPS, HEK-293T) (PSI 1-6); higher = more stable
- Condition label: treatment: MLN4924 1 uM, 8 h; c terminus: a fixed tail appended
When you answer, write just the number.

Form field protein stability index, entry REEVRGRELTGLKALYETELADAR [LMNB1] : 4.83

Form field protein stability index, entry RFHDPSPAQSHTLQANDVFHKQQW [NET1] : 3.4

Form field protein stability index, entry KRKGIKSSIGRLFGKKEKGRLIQL [PPFIA4] : 2.22

Form field protein stability index, entry RRSTTDLRGTQFDYERGKGESTED [ZSWIM9] : 5.53

Form field protein stability index, entry ERGVEGDFLIRDSESSPSDFSVSL [NCK2] : 4.26

Form field protein stability index, entry SGAGGTGGPAGQAGRGGAAGTAGV [MYOZ1] : 4.93

Form field protein stability index, entry TSSTFGLQDGNLRAPHKESTLPRS [CHCHD6] : 4.61

Form field protein stability index, entry IGGNHLKGFSHLDVMLVECYDPKG [KLHL14] : 2.21

Form field protein stability index, entry NEWRMVASMSKRRCGVGVSVLDDL [KLHL20] : 2.25

Form field protein stability index, entry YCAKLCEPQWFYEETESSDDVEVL [C8orf76] : 3.6

Form field protein stability index, entry SVPLAYFLLSQQTDLPECEQSSAR [TCF25] : 2.89

Form field protein stability index, entry CEKTFRDKNTLKDHMRKKQHRKIN [ZNF277] : 3.71

Form field protein stability index, entry LAEWEANPLICPVCTKYNLRITSG [RPAIN] : 3.31

Form field protein stability index, entry SESSLEMDDERYFNEMSAQGLRPR [CCDC6] : 4.85

Form field protein stability index, entry KQQREKTRWLNSGRGDEASEEGQN [ADD1] : 5.48

Form field protein stability index, entry IHDSEFKEYTTRTQAPPSVILGVT [DENND6A] : 3.29

Form field protein stability index, entry EKEVLRRERAVEWRERAVEKRERA [ZBED2] : 4.95

Form field protein stability index, entry PFAYLTVLDLSKSLSAALLTAALL [POMT2] : 3.02

Form field protein stability index, entry LPREPGDSAQFTKALAIILHLLYL [FEM1A] : 2.23

Form field protein stability index, entry QGLFFDMEAYLPKKNGLYLSLVLG [TMEM120A] : 2.62

Form field protein stability index, entry DKRRDLAHLAAEVEGKCLQSGFEM [TRIM39] : 4.03

Form field protein stability index, entry LPKELPADAVNLTIPASLDLSPLL [PLAGL1] : 3.48

Form field protein stability index, entry RMDTPPPEERLEKQNEKLNNQEEE [CCDC89] : 5.48

Form field protein stability index, entry LLLSILNPTRQDESIQRIAVHLCN [ZER1] : 2.42

Form field protein stability index, entry YQYLHYALFKANRLEKAVAAAYTF [P3H4] : 2.55

Form field protein stability index, entry VAFGIEADDESLLRTSNGQPVKTA [DNAAF3] : 4.52

Form field protein stability index, entry PSRAKPPTEGAGSPAKASQASKLR [FBF1] : 5.2

###

Exercise: state measured protein stability index for each of the sequences provided.
- Experimental details: protein stability index of a GFP-peptide fusion (GPS, HEK-293T) (PSI 1-6); higher = more stable
- Condition label: treatment: DMSO; c terminus: native
When you answer, write just the number.

Form field protein stability index, entry VVEEAKCCCFFKRKRKKTAQRHK [CSNK1G1] : 4.18

Form field protein stability index, entry MISTYEFGKSFFQRLNQDRLLGG [SLC25A39] : 3.21

Form field protein stability index, entry PCYSRQFITSCPCWLEILLNNPR [SMAD6] : 2.92

Form field protein stability index, entry LDKNKIPYKGFIPEDLEAFIELH [FEM1A] : 3.1

Form field protein stability index, entry HRDMKPDNILLDEHDTWLSYKSH [STK32A] : 3.68

Form field protein stability index, entry GLRAATMSAVEAATCRAKELSRK [PYCR3] : 5.1

Form field protein stability index, entry RERIERVRRIHIKRPDDRAHLHQ [KCTD10] : 4.2

###

- Experimental details: protein stability index of a GFP-peptide fusion (GPS, HEK-293T) (PSI 1-6); higher = more stable
- Condition label: treatment: MLN4924 1 uM, 8 h; c terminus: a fixed tail appended
Quantity measured: protein stability index
When you answer, write just the number.

Form field protein stability index, entry LGYCLLLMLAGMGLHYIAFRKVKQ [DNAJC4] : 3.11

Form field protein stability index, entry WVEQAYADKCVCGPSAPPAPTPPS [TIAF1] : 3.9

Form field protein stability index, entry DLSSESSIKKKFLKRKGKTDSPWI [EHMT1] : 3.66

Form field protein stability index, entry LPIFTPAKMGATKEEREDTPIQLQ [TCAP] : 4.72

Form field protein stability index, entry CNECAKLIIQAGIKEVIFMSDKYH [DCTD] : 2.43

Form field protein stability index, entry DNIKYQPKGGQVQIVTKKIDLSHV [MAP2] : 3.47

Form field protein stability index, entry VEKLLREEAEGARWTSYRFSRVCR [TRIM35] : 3.22
